# Tested on: CAKI-1
# Assay method text: NCI tumour cell line growth inhibition, 48 h
The source made the active and inactive calls. No stated cut-off is given here; in the data, active = GI50 up to about 1.1 µM and inactive = higher.
Answer each item with its documented GI50.

Guide cases for GI50, answers given:
compound="COc1cccc(C2=NC(C(C)C)CO2)c1 (centres undefined)" result="> 100 µM (inactive)"
compound="COC1/C=C/O[C@@]2(C)Oc3c(C)c(O)c4c(O)c(cc(O)c4c3C2=O)NC(=O)/C(C)=C\\C=C\\[C@H](C)C(O)[C@@H](C)[C@@H](O)[C@@H](C)[C@H](OC(C)=O)[C@@H]1C (some centres undefined)" result="37.9 µM (inactive)"
compound=CC(C)OP(=O)(CCCCCCCCC/C=C/c1ccc2c(c1)OCCOCCOCCOCCO2)OC(C)C result="3.51 µM (inactive)"
compound="O=C(C1OC1c1ccc([N+](=O)[O-])cc1)C12CC3CC(CC(C3)C1)C2 (centres undefined)" result="20.3 µM (inactive)"

// for each compound below, give its GI50
1. COc1cc2c(cc1C1COc3cc4occc4cc3C1=O)OCO2 (centres undefined)
2. Cc1ccc(/C=C2\CN(C)CC3C2=NC(=S)NC3c2ccc(C)cc2)cc1 (centres undefined)
3. COC(=O)c1c(-c2ccccc2)cc2c3cc(-c4ccccc4)c(C(=O)OC)n3c3ccccc3n12
4. OC(Cc1ccccc1)(Cc1ccccc1)c1ccccc1
5. Oc1ccc(N=C2CCC(=C(c3ccccc3)c3ccc(Nc4ccc(O)cc4)cc3)CC2)cc1

Response:
1: 67 µM (inactive); 2: > 77.1 µM (inactive); 3: > 100 µM (inactive); 4: 23.2 µM (inactive); 5: 35.4 µM (inactive)

// for each compound below, give its GI50
1. NCCN/C(=N\c1ccccc1)Nc1ccccc1
2. NC(CCCCNC(=O)C(Cc1ccccc1)NC(=O)OCc1ccccc1)C(=O)NC(CCCCNC(=O)C(Cc1ccccc1)NC(=O)OCc1ccccc1)C(=O)NC(CCCCNC(=O)C(Cc1ccccc1)NC(=O)OCc1ccccc1)C(=O)NC(CCCCNC(=O)C(Cc1ccccc1)NC(=O)OCc1ccccc1)C(=O)NC(CCCCNC(=O)C(Cc1ccccc1)NC(=O)OCc1ccccc1)C(=O)NC(CCCCNC(=O)C(Cc1ccccc1)NC(=O)OCc1ccccc1)C(=O)O (centres undefined)
3. CCOC(=O)c1nc2ccc(C(F)(F)F)cc2nc1Oc1ccc(F)cc1
4. CN1CCOC1(C)CO (centres undefined)
5. O=c1c2ccccc2nc(-c2cccc(Cl)c2)n1NC1OC(CO)C(O)C(O)C1O (centres undefined)

Response:
1. > 100 µM (inactive)
2. > 100 µM (inactive)
3. > 100 µM (inactive)
4. > 100 µM (inactive)
5. > 100 µM (inactive)

// for each compound below, give its GI50
1. N#Cc1cnc(-n2[nH]c3c(c2=O)CCCC3)[nH]c1=O
2. Cc1ccc(NC(=O)CC(=O)n2nc(C)c(/N=N/c3cccc(C)c3)c2C)cc1
3. CCOC(=O)CC[C@H](NC(=O)N[C@H](C)c1ccccc1)C(=O)OCC
4. CCC[N+](C)(C)CCCNC(=O)c1c(O)c2ccccc2[nH]c1=O
5. CN(C)C(=O)OC(Cn1cncn1)c1ccc(Cl)cc1Cl (centres undefined)
6. O=C(Nc1ccccc1-c1n[nH]c(S)nc1=O)C(F)(F)F
7. CC[n+]1c(-c2ccccc2)c2cc(N)ccc2c2ccc(N)cc21

Response:
1: 39.2 µM (inactive); 2: > 100 µM (inactive); 3: > 100 µM (inactive); 4: > 100 µM (inactive); 5: > 100 µM (inactive); 6: > 100 µM (inactive); 7: 11.8 µM (inactive)
